molecular target: FGFR1 active kinase (Homo sapiens, UniProt P11362); test: FGFR Kinase assay - Caliper Echo Dosing; type: biochemical; details: FGFR1 7.2 nM, 408 uM ATP, acoustic dosing; geometric mean of n
Sequence (P11362 22-822): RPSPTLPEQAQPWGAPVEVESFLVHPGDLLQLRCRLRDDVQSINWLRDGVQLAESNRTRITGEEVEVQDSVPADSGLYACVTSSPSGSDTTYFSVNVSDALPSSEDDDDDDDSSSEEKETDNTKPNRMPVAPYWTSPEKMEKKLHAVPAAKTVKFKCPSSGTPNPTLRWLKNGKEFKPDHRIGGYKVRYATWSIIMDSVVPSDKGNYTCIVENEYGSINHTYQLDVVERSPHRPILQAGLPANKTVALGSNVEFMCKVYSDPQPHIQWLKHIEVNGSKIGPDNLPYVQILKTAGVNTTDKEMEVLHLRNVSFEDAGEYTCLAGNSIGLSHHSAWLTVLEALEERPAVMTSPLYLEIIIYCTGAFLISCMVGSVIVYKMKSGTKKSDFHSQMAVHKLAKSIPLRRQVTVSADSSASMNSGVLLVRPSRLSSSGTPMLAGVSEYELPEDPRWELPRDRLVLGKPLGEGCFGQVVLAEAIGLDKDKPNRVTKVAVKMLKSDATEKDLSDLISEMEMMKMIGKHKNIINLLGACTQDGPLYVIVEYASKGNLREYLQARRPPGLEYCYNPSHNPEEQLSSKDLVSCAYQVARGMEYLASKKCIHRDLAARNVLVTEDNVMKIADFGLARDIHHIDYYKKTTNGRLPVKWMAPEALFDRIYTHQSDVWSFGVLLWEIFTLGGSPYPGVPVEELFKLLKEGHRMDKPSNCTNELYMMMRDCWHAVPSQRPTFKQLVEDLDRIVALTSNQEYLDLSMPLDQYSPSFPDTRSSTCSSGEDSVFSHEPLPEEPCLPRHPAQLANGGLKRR
measurementLabel: pIC50
Give bare numbers, as −log10 of the molar value.

Please report pIC50 for every entry that follows.
1. COc1cc(CCc2cc(NC(=O)c3cnc(N4CCN(C)CC4)nc3)[nH]n2)cc(OC)c1
2. COc1cc(CCc2cc(NC(=O)c3ccc(N4CCN(C5CC5)CC4)cc3)n[nH]2)cc(OC)c1
3. COc1cc(COc2cc(NC(=O)c3ccc(N4CCN5CCCCC5C4)cc3)[nH]n2)cc(OC)c1 (stereo not shown)
4. COc1cc(CCc2cc(NC(=O)c3cnc(N4C[C@@H](C)N(CC#N)[C@@H](C)C4)cn3)[nH]n2)cc(OC)c1
5. COc1cc(CCc2cc(NC(=O)c3cnc(N4CCCN(C)CC4)nc3)[nH]n2)cc(OC)c1
6. COc1cc(CCc2cc(NC(=O)c3cnc(N4CCN(C)C(=O)C4)nc3)[nH]n2)cc(OC)c1
7. CCN1CCC(c2ccc(C(=O)Nc3cc(CCc4cc(OC)cc(OC)c4)n[nH]3)cc2)CC1

1. 7.83
2. 9.11
3. 8.52
4. 8.46
5. 8.24
6. 7.92
7. 9.01

* * *

biological target: FGFR1 active kinase (Homo sapiens, UniProt P11362); experiment: FGFR Kinase assay - Caliper; assay type: biochemical; conditions: FGFR1 […], 408 uM ATP; mean of n as printed; read-out: FGFR Kinase assay - Caliper, IC50; note: 408 µM ATP
Where a name gives a salt, the structure may show the parent alone.
measurementLabel: IC50 (nM)
Answers are plain numbers, in nM.

Field: example entries. Status: answers known.
molecule | assaySystem | unitAnnotation | IC50
COc1cc(COc2cc(NC(=O)c3ccc(N4CCNCC4)nc3)[nH]n2)cc(OC)c1 [Example 72] | FGFR1 active kinase (Homo sapiens, UniProt P11362) | nM | 25
COc1cc(COc2cc(NC(=O)c3ccc(N4CCCNCC4)cc3)n[nH]2)cc(OC)c1 [Example 75, Hydrochloride] | FGFR1 active kinase (Homo sapiens, UniProt P11362) | nM | 8.5
COc1cc(CCc2cc(NC(=O)c3cccc(OC)c3)n[nH]2)cc(OC)c1 [Example 39] | FGFR1 active kinase (Homo sapiens, UniProt P11362) | nM | 370

Please report IC50 for every entry that follows.
1. COc1cc(CCc2cc(NC(=O)c3ccc(OCC4CCNCC4)cc3)n[nH]2)cc(OC)c1 [Example 44]
2. COc1cccc(CCc2cc(NC(=O)c3ccc(NC(C)=O)cc3)[nH]n2)c1 [Example 19]
3. CN1CCN(c2ccc(C(=O)Nc3cc(CCc4cccnc4)n[nH]3)cc2)CC1 [Example 7]

[25, 400, 47]

Please report IC50 for every entry that follows.
1. COCCOc1cccc(CCc2cc(NC(=O)c3ccc(N4CCN(C)CC4)cc3)[nH]n2)c1 [Example 6]
2. COc1cccc(CCc2cc(NC(=O)c3ccc(-n4cnnn4)cc3)[nH]n2)c1 [Example 34]
3. COc1cc(CCc2cc(NC(=O)c3ccc(CN4CCCC(C)(C)C4)cc3)n[nH]2)cc(OC)c1 [Example 50]
4. COc1cccc(CCc2cc(NC(=O)c3ccc(Cl)nc3)[nH]n2)c1 [Example 62]

1. 58
2. 1000
3. 1
4. 4540
